Sourced from patent US11026944B2

# Protocol notes: Crossover study of relative bioavailability of tablet versus capsule (005 Study): plasma PK
# Assay type: in vivo, human
# Measurement context: human, plasma, po, 25 mg, single oral 25 mg Tablet, healthy adults; read-out: t1/2 Mean(SD) (converted)
Quantity measured: half-life (h)
Return type: number; implicit unit h.

# query: half-life of entry Cc1ncc(OC[C@@]2(c3cccc(F)c3)C[C@H]2C(=O)Nc2ccc(F)cn2)c(C)n1
57.6

====

# Protocol notes: Crossover study of relative bioavailability of tablet versus capsule (005 Study): plasma PK
# Assay type: in vivo, human
# Measurement context: human, plasma, po, 10 mg, single oral 10 mg Capsule, healthy adults; read-out: AUC(0-t) Mean(SD)
Quantity measured: AUC(0-t) (ng·h/mL)
Return type: number; implicit unit ng·h/mL.

Given Cc1ncc(OC[C@@]2(c3cccc(F)c3)C[C@H]2C(=O)Nc2ccc(F)cn2)c(C)n1 , state its recorded AUC(0-t).
511

====

# Protocol notes: Single dose study (001 Study) Part A: plasma PK of compound A
# Assay type: in vivo
# Measurement context: human, plasma, po, 10 mg, single oral 10 mg, healthy subjects (Part A); read-out: Cmax Mean(SD)
# Description: This was a randomized, double-blind, placebo- and active-controlled, sequential, single-dose study. The study consisted of two parts, Part A (healthy subjects) and Part B (otherwise healthy subjects with primary insomnia). […] Plasma concentrations of compound A were measured using a validated liquid chromatography-mass spectrometry/mass spectrometry (LC-MS/MS) assay.
Quantity measured: Cmax (ng/mL)
State the answer as a number, implicitly in ng/mL.

Need Cmax of Cc1ncc(OC[C@@]2(c3cccc(F)c3)C[C@H]2C(=O)Nc2ccc(F)cn2)c(C)n1 , thanks.
36

====

# Protocol notes: Crossover study of relative bioavailability of tablet versus capsule (005 Study): plasma PK
# Assay type: in vivo, human
# Measurement context: human, plasma, po, 2.5 mg, single oral 2.5 mg Tablet, healthy adults; read-out: AUC(0-t) Mean(SD)
Quantity measured: AUC(0-t) (ng·h/mL)
The reply should be a number in ng·h/mL, with the unit left off.

Can you share its AUC(0-t)? I mean this compound: Cc1ncc(OC[C@@]2(c3cccc(F)c3)C[C@H]2C(=O)Nc2ccc(F)cn2)c(C)n1 [Compound A]
93.2

====

# Protocol notes: Crossover study of relative bioavailability of tablet versus capsule (005 Study): plasma PK
# Assay type: in vivo, human
# Measurement context: human, plasma, po, 10 mg, single oral 10 mg Tablet, healthy adults; read-out: AUC(0-72) Mean(SD)
Quantity measured: AUC(0-t) (ng·h/mL)
# number only, unit ng·h/mL dropped from output

Find the recorded AUC(0-t) belonging to Cc1ncc(OC[C@@]2(c3cccc(F)c3)C[C@H]2C(=O)Nc2ccc(F)cn2)c(C)n1 [Compound A] and report it.
341

====

# Protocol notes: Single daily dose PK in human subjects (summary statements)
# Assay type: in vivo
# Measurement context: plasma, oral, 2.5 mg, single 2.5 mg daily dose, read-out: mean AUC(0-t)
Quantity measured: AUC(0-t)

Please report the recorded AUC(0-t) for Cc1ncc(OC[C@@]2(c3cccc(F)c3)C[C@H]2C(=O)Nc2ccc(F)cn2)c(C)n1 .
80 to 95 ng·h/mL

====

# Protocol notes: Multiple ascending dose study (002 Study): plasma PK
# Assay type: in vivo, human
# Measurement context: human, plasma, oral, 5 mg, Day 14, 5 mg once daily for 14 days; read-out: Cmax Mean(SD)
Quantity measured: Cmax

So what's the measured Cmax for this one? Cc1ncc(OC[C@@]2(c3cccc(F)c3)C[C@H]2C(=O)Nc2ccc(F)cn2)c(C)n1
~24 ng/mL

====

# Protocol notes: Single dose study (001 Study) Part A: plasma PK of compound A
# Assay type: in vivo
# Measurement context: human, plasma, po, 5 mg, single oral 5 mg, healthy subjects (Part A); read-out: tmax Median
Quantity measured: Tmax
Returns: string containing the number followed by the unit.

Recorded Tmax of Cc1ncc(OC[C@@]2(c3cccc(F)c3)C[C@H]2C(=O)Nc2ccc(F)cn2)c(C)n1 [Compound A] , please.
1.55 h

====

# Protocol notes: Single dose study (001 Study) Part A: plasma PK of compound A
# Format: in vivo
# Measurement context: human, plasma, po, 2.5 mg, single oral 2.5 mg, healthy subjects (Part A); read-out: AUC(0-t) Mean(SD)
Quantity measured: AUC(0-t) (ng·h/mL)
Return type: number; implicit unit ng·h/mL.

Please look up its AUC(0-t): Cc1ncc(OC[C@@]2(c3cccc(F)c3)C[C@H]2C(=O)Nc2ccc(F)cn2)c(C)n1
80.2

====

# Protocol notes: Multiple ascending dose study (002 Study): plasma PK
# Type: in vivo, human
# Measurement context: human, oral; plasma at 8 h, Day 1, 5 mg; read-out: C8 Mean(SD)
Quantity measured: concentration at 8 h (ng/mL)
Number in ng/mL, nothing else.

concentration at 8 h for Cc1ncc(OC[C@@]2(c3cccc(F)c3)C[C@H]2C(=O)Nc2ccc(F)cn2)c(C)n1 ?
4.4

====

# Protocol notes: Multiple ascending dose study (002 Study): plasma PK
# Type: in vivo, human
# Measurement context: human, plasma, oral, 2.5- and 5-mg doses, average; read-out: terminal half-life (converted)
# Description: A total of 48 healthy adult subjects (18 to 55 years) were to be enrolled into 1 of 6 cohorts sequentially in a gradual dose escalation manner, and randomized to receive either compound A or compound A-matched placebo in the evening 30 minutes before habitual bedtime, and after 3 hours fasting, for 14 days. Each cohort was to comprise 6 compound A-treated subjects and 2 placebo-treated subjects. […]
Quantity measured: half-life

Quick check: half-life of Cc1ncc(OC[C@@]2(c3cccc(F)c3)C[C@H]2C(=O)Nc2ccc(F)cn2)c(C)n1 [Compound A] ?
~45 h

====

# Protocol notes: Single dose study (001 Study) Part A: plasma PK of compound A
# Format: in vivo
# Measurement context: human, plasma, po, 25 mg, single oral 25 mg, healthy subjects (Part A); read-out: AUC(0-inf) Mean(SD)
Quantity measured: AUC(0-inf) (ng·h/mL)
State the answer as a number, implicitly in ng·h/mL.

What does the record list as AUC(0-inf) for Cc1ncc(OC[C@@]2(c3cccc(F)c3)C[C@H]2C(=O)Nc2ccc(F)cn2)c(C)n1 [Compound A] ?
1540

====

# Protocol notes: Single dose study (001 Study) Part A: plasma PK of compound A
# Type: in vivo
# Measurement context: human; plasma at 9 h after single oral 10 mg, healthy subjects (Part A); read-out: C9 Mean(SD)
# Method: This was a randomized, double-blind, placebo- and active-controlled, sequential, single-dose study. The study consisted of two parts, Part A (healthy subjects) and Part B (otherwise healthy subjects with primary insomnia). […] Plasma concentrations of compound A were measured using a validated liquid chromatography-mass spectrometry/mass spectrometry (LC-MS/MS) assay.
Quantity measured: concentration at 9 h (ng/mL)
Unit ng/mL implied. Number only.

What value of measured concentration at 9 h is listed for Cc1ncc(OC[C@@]2(c3cccc(F)c3)C[C@H]2C(=O)Nc2ccc(F)cn2)c(C)n1 ?
4.6

====

# Protocol notes: Single dose study (001 Study) Part A: plasma PK of compound A
# Format: in vivo
# Measurement context: human, plasma, po, 100 mg, single oral 100 mg, healthy subjects (Part A); read-out: AUC(0-24) Mean(SD)
Quantity measured: AUC from 0 to 24 h (ng·h/mL)
Numeric only. Scale: ng·h/mL

What does the record list as AUC from 0 to 24 h for Cc1ncc(OC[C@@]2(c3cccc(F)c3)C[C@H]2C(=O)Nc2ccc(F)cn2)c(C)n1 ?
1930

====

# Protocol notes: Multiple ascending dose study (002 Study): plasma PK
# Format: in vivo, human
# Measurement context: human, plasma, oral, 5 mg, Day 14, 5 mg once daily for 14 days; read-out: AUC(0-24) Mean(SD)
# Description: A total of 48 healthy adult subjects (18 to 55 years) were to be enrolled into 1 of 6 cohorts sequentially in a gradual dose escalation manner, and randomized to receive either compound A or compound A-matched placebo in the evening 30 minutes before habitual bedtime, and after 3 hours fasting, for 14 days. Each cohort was to comprise 6 compound A-treated subjects and 2 placebo-treated subjects. […]
Quantity measured: AUC(0-t)

Give its AUC(0-t) value. Item: Cc1ncc(OC[C@@]2(c3cccc(F)c3)C[C@H]2C(=O)Nc2ccc(F)cn2)c(C)n1
~190 ng·h/mL

====

# Protocol notes: Single dose study (001 Study) Part A: plasma PK of compound A
# Assay type: in vivo
# Measurement context: human, plasma, po, 100 mg, single oral 100 mg, healthy subjects (Part A); read-out: tmax Median
Quantity measured: Tmax

Consider the compound shown here: Cc1ncc(OC[C@@]2(c3cccc(F)c3)C[C@H]2C(=O)Nc2ccc(F)cn2)c(C)n1 What is its recorded Tmax?
3 h

====

# Protocol notes: Multiple ascending dose study (002 Study): plasma PK
# Type: in vivo, human
# Measurement context: human, plasma, oral, 2.5 mg, Day 1, 2.5 mg once daily in the evening; read-out: AUC(0-24) Mean(SD)
# Method: A total of 48 healthy adult subjects (18 to 55 years) were to be enrolled into 1 of 6 cohorts sequentially in a gradual dose escalation manner, and randomized to receive either compound A or compound A-matched placebo in the evening 30 minutes before habitual bedtime, and after 3 hours fasting, for 14 days. Each cohort was to comprise 6 compound A-treated subjects and 2 placebo-treated subjects. […]
Quantity measured: AUC(0-t) (ng·h/mL)
Dear colleague, please return just the value in ng·h/mL, with no unit written.

Could you tell me which AUC(0-t) is on file for Cc1ncc(OC[C@@]2(c3cccc(F)c3)C[C@H]2C(=O)Nc2ccc(F)cn2)c(C)n1 ?
59.4
